Data credit: patent US12447153B2

# assayed_system: UniProt P00533
# method_description: ErbB Enzyme Assay (HTRF KinEASE-TK), Assay 3
# Format: biochemical
# condition_description: EGFR enzyme assay
pIC50: −log10 of the molar value.
Classify by measured pIC50: YES if it is equal to or exceeds 6, NO if it is smaller.

                                   molecule  label
0  C=CC(=O)N1CC2(CCN(c3ccc4ncnc(Nc5ccc(Oc6ccn7ncnc7c6)c(C)c5F)c4n3)C2)C1 [Example 307]     NO
1  C=CC(=O)N1CCN(c2ccc3ncnc(Nc4ccc(Oc5cnc6c(c5)ncn6C)c(C)c4F)c3n2)C[C@@H]1C [Example 437]     NO
2  C=C(C)C(=O)N1CCN(c2ccc3ncnc(Nc4ccc(Oc5ccn6ncnc6c5)c(C)c4F)c3n2)CC1 [Example 364]     NO
3  C=CC(=O)N1CC2CC(C1)N2c1ccc2ncnc(Nc3cc(C)c(Oc4ccn5ncnc5c4)cc3F)c2n1 [Example 336]     NO
4  C=CC(=O)N1CCN(c2ccc3ncnc(Nc4ccc(Oc5ccn6ncnc6c5)c(Cl)c4F)c3n2)C[C@H]1COC [Example 344]    YES
5  C#CC1CN(c2ccc3ncnc(Nc4ccc(Oc5ccn6ncnc6c5)c(C)c4F)c3n2)CCN1C(=O)C=C (centres unmarked) [Example 322]    YES
6  C=CC(=O)N1CCC(c2ccc3ncnc(Nc4ccc(Oc5cnc6c(c5)ncn6C)c(Cl)c4)c3n2)CC1 [Example 271]     NO
7  C=CC(=O)N1[C@H](C)CN(c2ccc3ncnc(Nc4ccc(Oc5cnc6c(c5)ncn6C)c(C)c4F)c3n2)C[C@@H]1C [Example 442]     NO
8  C=CC(=O)N1C2CC1CN(c1ccc3ncnc(Nc4ccc(Oc5cnc6c(c5)ncn6C)c(C)c4F)c3n1)C2 [Example 438]     NO

In the following, a different molecule is considered.
Could you verify whether the entry C=CC(=O)N1C[C@@H]2CC[C@H]1CN2c1ccc2ncnc(Nc3cc(Cl)c(Oc4ccn5ncnc5c4)cc3F)c2n1 [Example 321] shows pIC50 of no less than 6?
YES

###

# Lookup of reported IC50 keyed by entry
# assayed_system: EGFR (Homo sapiens (Human))
# Sequence (P00533 25-1210): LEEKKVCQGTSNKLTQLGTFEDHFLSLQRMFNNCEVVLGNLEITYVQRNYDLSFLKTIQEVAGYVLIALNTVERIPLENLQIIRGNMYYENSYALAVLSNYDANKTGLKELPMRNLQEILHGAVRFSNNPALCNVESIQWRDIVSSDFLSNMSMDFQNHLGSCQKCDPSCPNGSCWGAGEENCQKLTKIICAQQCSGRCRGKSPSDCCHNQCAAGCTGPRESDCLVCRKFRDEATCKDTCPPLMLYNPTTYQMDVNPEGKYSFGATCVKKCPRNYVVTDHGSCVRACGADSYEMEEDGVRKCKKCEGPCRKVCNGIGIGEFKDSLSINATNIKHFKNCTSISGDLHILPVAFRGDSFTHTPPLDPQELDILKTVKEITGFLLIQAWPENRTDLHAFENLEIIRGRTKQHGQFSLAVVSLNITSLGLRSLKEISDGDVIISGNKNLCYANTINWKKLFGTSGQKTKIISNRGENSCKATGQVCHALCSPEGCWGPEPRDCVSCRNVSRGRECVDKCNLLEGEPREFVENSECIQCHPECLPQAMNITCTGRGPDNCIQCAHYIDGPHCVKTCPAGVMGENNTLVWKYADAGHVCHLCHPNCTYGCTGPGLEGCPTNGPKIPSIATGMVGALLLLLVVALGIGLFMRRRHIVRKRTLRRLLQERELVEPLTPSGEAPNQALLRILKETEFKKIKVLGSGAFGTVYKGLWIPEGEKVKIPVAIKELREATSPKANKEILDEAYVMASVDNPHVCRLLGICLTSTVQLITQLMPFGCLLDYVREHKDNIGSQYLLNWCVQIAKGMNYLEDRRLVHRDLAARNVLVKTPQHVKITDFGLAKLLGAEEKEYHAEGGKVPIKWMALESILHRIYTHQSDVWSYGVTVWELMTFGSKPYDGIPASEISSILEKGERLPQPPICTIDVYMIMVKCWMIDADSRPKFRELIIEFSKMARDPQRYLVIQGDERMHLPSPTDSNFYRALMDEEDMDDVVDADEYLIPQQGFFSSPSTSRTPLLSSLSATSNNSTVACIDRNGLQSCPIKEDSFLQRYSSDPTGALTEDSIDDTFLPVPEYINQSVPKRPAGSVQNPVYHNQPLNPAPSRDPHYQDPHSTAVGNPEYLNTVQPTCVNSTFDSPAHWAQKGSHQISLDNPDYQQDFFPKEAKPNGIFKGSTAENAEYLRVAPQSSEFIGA
# method_description: ErbB Enzyme Assay (HTRF KinEASE-TK), Assay 3
# Format: biochemical
# condition_description: EGFR enzyme assay
Please give a number only; it is taken to be in µM.

                                   compound  property_name  result_number
0  C=CC(=O)N1C[C@@H]2C[C@H]1CC[C@@H]2c1ccc2ncnc(Nc3ccc(Oc4ccn5ncnc5c4)c(C)c3F)c2n1           IC50           1.72
1  C=CC(=O)N(C)[C@H]1CCN(c2ccc3ncnc(Nc4ccc(Oc5ccn6ncnc6c5)c(C)c4F)c3n2)C1           IC50           2.91
2  C=CC(=O)N1CCN(c2ccc3ncnc(Nc4ccc(Oc5ccn6ncnc6c5)c(C)c4F)c3n2)C[C@H]1C1CC1           IC50           4.55
3  C=CC(=O)N1CCN(c2ccc3ncnc(Nc4ccc(Oc5cnc6c(c5)ncn6C)c(C)c4F)c3n2)C[C@H]1C           IC50           4.83
4  C=CC(=O)N1CCN(c2ccc3ncnc(Nc4ccc(Oc5ccn6ncnc6c5)c(Cl)c4F)c3n2)C[C@H]1C(C)C           IC50          0.462

Query (compound): C=CC(=O)N1C[C@@H]2CC[C@H]1CN2c1ccc2ncnc(Nc3ccc(Oc4cnc5c(c4)ncn5C)c(C)c3F)c2n1 ; field requested: IC50
0.436

Consider the compound shown here: C=CC(=O)N1C[C@@H]2C[C@H](c3ccc4ncnc(Nc5cc(C)c(Oc6ccc7c(c6)ncn7C)cc5F)c4n3)C[C@H]1C2 What is its recorded IC50?
1.8

Entry C=CC(=O)N1[C@@H]2CC[C@H]1[C@H](c1ccc3ncnc(Nc4cc(C)c(Oc5ccc6c(c5)ncn6C)cc4F)c3n1)C2 : reported IC50 = ?
0.715

I would be grateful if you could share the reported IC50 for C=CC(=O)N1CCCC(c2ccc3ncnc(Nc4cc(Cl)c(Oc5ccn6ncnc6c5)cc4F)c3n2)CC1 (stereo not shown) .
3.24

Record request: IC50 value, item C=CC(=O)N1C[C@@H]2C[C@H]1CC[C@@H]2c1ccc2ncnc(Nc3cc(C)c(Oc4ccc5c(c4)ncn5C)cc3F)c2n1
4.56

Returns the measured IC50 for the input compound. Input: C=CC(=O)N1CCN(c2ccc3ncnc(Nc4ccc(Oc5ccn6ncnc6c5)c(C)c4F)c3n2)C[C@@H]1CC
8.2
